Molecular target: E. coli MurF (Escherichia coli, UniProt P11880)
Sequence (P11880 whole entry): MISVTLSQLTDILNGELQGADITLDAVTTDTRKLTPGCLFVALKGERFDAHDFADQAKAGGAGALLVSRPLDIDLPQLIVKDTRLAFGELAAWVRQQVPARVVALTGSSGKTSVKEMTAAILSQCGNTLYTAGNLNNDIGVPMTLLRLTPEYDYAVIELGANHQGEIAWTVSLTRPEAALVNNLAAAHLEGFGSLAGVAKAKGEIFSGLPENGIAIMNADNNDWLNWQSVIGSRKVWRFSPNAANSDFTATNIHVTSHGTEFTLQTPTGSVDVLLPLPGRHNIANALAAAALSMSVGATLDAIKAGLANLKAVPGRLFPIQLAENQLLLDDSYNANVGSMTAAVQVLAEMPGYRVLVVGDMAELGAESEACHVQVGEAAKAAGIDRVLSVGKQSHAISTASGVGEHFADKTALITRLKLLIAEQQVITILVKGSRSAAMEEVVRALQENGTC
Experiment: biochemical
Settings: 0.25 h, Table S1, PKIS screening; read-out: RA [%] at 100 µM MurF
Provide the recorded remaining activity at 100 µM for the entries that follow.
Answers are plain numbers, in %.

molecule: O=C1NC(=O)C(N2CCc3ccccc32)=C1c1ccc(Cl)cc1
remaining activity at 100 µM, %: 100

molecule: COc1ccc2cc(-c3c(-c4ccncc4)nc(-c4ccc(S(C)(=O)=O)cc4C)n3C)ccc2c1
remaining activity at 100 µM, %: 56

molecule: CS(=O)(=O)CCN(CC#N)Cc1ccc(-c2ccc3ncnc(Nc4ccc(OCc5cccc(F)c5)c(Cl)c4)c3c2)o1 [GW616030X]
remaining activity at 100 µM, %: 80

molecule: C[C@@H](Oc1cc(-n2cnc3ccc(OC4CCN(C)CC4)cc32)sc1C(N)=O)c1ccccc1Cl [GSK579289A]
remaining activity at 100 µM, %: 66

molecule: COc1cc2c(cc1Nc1nc(Nc3cccc(F)c3C(N)=O)c3cc[nH]c3n1)N(C(=O)CN1CCN(C(C)C)CC1)CC2 [GSK1751853A]
remaining activity at 100 µM, %: 89

molecule: CCS(=O)(=O)c1ccc(OC)c(Nc2ncc(-c3cccc(-c4ccccc4F)c3)o2)c1 [GW678313X]
remaining activity at 100 µM, %: 82

Kindly give each listed record's remaining activity at 100 µM.
1. COc1cc2ncn(-c3cc(OCCc4ccccc4)c(C(N)=O)s3)c2cc1OC [GSK204925A]
2. COc1ccc2cc(-c3c(-c4ccncc4)nc(-c4ccc([S+](C)[O-])cc4)n3C)ccc2c1 (centres unmarked)
3. NS(=O)(=O)c1ccc(N/N=C2\C(=O)Nc3ccc(Cl)cc32)cc1 [GW280670X]

**A:**
1. 63
2. 70
3. 76
